Target: P2X7 (Homo sapiens (Human))
Experiment: P2X7 antagonism in human peripheral blood mononuclear cells (PBMCs), IL-1β release
Format: cell-based
Conditions: P2X7; Table 3 (additional runs); 10 μM compound; read-out: PBMC 10 μM (% control)
Measured property: remaining activity at 10 µM (%)
Write the value in % as a bare number.

# Compound, Measured property, Reported
measured = [
    ("O=C1c2nnc(-c3ncccn3)n2CC(C2CC2)N1Cc1cccc(C(F)(F)F)c1Cl (racemic)", "remaining activity at 10 µM", -0.4),
    ("C[C@H]1Cn2c(-c3cccc(C(F)(F)F)n3)nnc2-c2nnc(-c3cccc(C(F)(F)F)c3Cl)n21", "remaining activity at 10 µM", 25.9),
    ("COc1ccnc(-c2nnc3n2C[C@H](C)n2c(-c4ccc(Cl)cc4Cl)nnc2-3)c1", "remaining activity at 10 µM", -0.7),
    ("Cc1c(CN2C(=O)c3nnc(-c4cnccn4)n3C[C@@H]2C)cccc1C(F)(F)F", "remaining activity at 10 µM", 16.6),
    ("C[C@H]1Cn2c(nnc2-c2cnccn2)C(=O)N1Cc1cccc(Cl)c1Cl", "remaining activity at 10 µM", 8.2),
    ("O=C1c2nnc(-c3ccccn3)n2CCN1Cc1cccc(C(F)(F)F)c1Cl", "remaining activity at 10 µM", -3.1),
]

The compound listed as Cc1nc(C)c(-c2nnc3n2C[C@H](C)N(Cc2cccc(C(F)(F)F)c2Cl)C3=O)s1 has a reported remaining activity at 10 µM of 20.3

Documented remaining activity at 10 µM of Cc1cccc(-c2nnc3n2C[C@H](C)N(Cc2cccc(C(F)(F)F)c2Cl)C3=O)n1 : 2.7

====

# PBMC 10 μM (% control) annotations
Target: P2X7 (Homo sapiens (Human))
Experiment: P2X7 antagonism in human peripheral blood mononuclear cells (PBMCs), IL-1β release
Type: cell-based
Details: Table 2; 10 μM compound; IL-1β release, LPS + 0.5 mM Bz-ATP
Expressed in % control, but write only the number.

# Molecule, System tested, PBMC 10 μM (% control)
records = [
    ("CC[C@H]1Cn2c(nnc2-c2cnccn2)C(=O)N1Cc1cccc(C(F)(F)F)c1Cl", "P2X7 (Homo sapiens (Human))", 1.2),
    ("C[C@H]1Cn2c(nnc2-c2cnccn2)C(=O)N1Cc1cccc(Cl)c1Cl", "P2X7 (Homo sapiens (Human))", 15.4),
    ("C[C@H]1Cn2c(nnc2-c2cnccn2)C(=O)N1Cc1cccc(C(F)(F)F)c1Cl", "P2X7 (Homo sapiens (Human))", 13.4),
]

Now for the molecule whose PBMC 10 μM (% control) we want.
Reported PBMC 10 μM (% control) ( CC(c1cccc(C(F)(F)F)c1Cl)N1C(=O)c2nnc(-c3cnccn3)n2C[C@@H]1C (stereo partly shown) ) = 4.5

====

Target: P2X7 (Homo sapiens (Human))
Test: P2X7 antagonism in human peripheral blood mononuclear cells (PBMCs), IL-1β release
Type: cell-based
Details: P2X7; Table 3 (additional runs); 10 μM compound; read-out: PBMC 10 μM (% control)
Measured property: remaining activity at 10 µM (%)
Reply numerically in %, unit not repeated.

The recorded remaining activity at 10 µM for entry CC[C@H]1Cn2c(nnc2-c2cccnc2)C(=O)N1Cc1cccc(C(F)(F)F)c1Cl equals 6.2

remaining activity at 10 µM recorded for this molecule, C[C@H]1Cn2c(nnc2-c2cnccn2)C(=O)N1Cc1ccccc1OC(F)(F)F , is 15.6

# remaining activity at 10 µM (molecule: C[C@H]1Cn2c(-c3ccccn3)nnc2-c2nnc(-c3cccc(C(F)(F)F)c3Cl)n21 ) is -4.2

Note to self: remaining activity at 10 µM recorded for Cc1ncsc1-c1nnc2n1C[C@H](C)n1c(-c3cccc(C(F)(F)F)c3Cl)nnc1-2 was -1.2

Note to self: remaining activity at 10 µM recorded for C[C@H]1Cn2c(nnc2-c2cnco2)C(=O)N1Cc1cccc(C(F)(F)F)c1Cl was -3.9

Record summary for Cc1cnc(-c2nnc3n2C[C@H](C)n2c(-c4cccc(C(F)(F)F)c4Cl)nnc2-3)cn1 : reported remaining activity at 10 µM = -1.4

The molecule O=C1c2nnc(-c3ccc(F)cc3)n2CCN1Cc1cccc(C(F)(F)F)c1Cl showed remaining activity at 10 µM equal to 25.4

According to the records, this molecule C[C@H]1Cn2c(-c3ccncn3)nnc2-c2nnc(-c3cccc(C(F)(F)F)c3Cl)n21 displays remaining activity at 10 µM of 6.1

Summary for this molecule, C[C@H]1Cn2c(nnc2-c2cnccn2)C(=O)N1Cc1ccccc1[N+](=O)[O-] : remaining activity at 10 µM is 30.7

The molecule identified as C[C@H]1Cn2c(nnc2-c2cnccn2)C(=O)N1Cc1cc([N+](=O)[O-])ccc1Cl registered its remaining activity at 10 µM at 24.4

# remaining activity at 10 µM (molecule: Cc1cc(-c2nnc3n2C[C@H](C)N(Cc2cccc(C(F)(F)F)c2Cl)C3=O)n[nH]1 ) is -3.7

Sample C[C@H]1Cn2c(-c3ccc(F)cn3)nnc2-c2nnc(-c3ccc(Cl)cc3Cl)n21 ; remaining activity at 10 µM observed: 0.1

Given item C[C@H]1Cn2c(nnc2-c2cnccn2)C(=O)N1Cc1cc2c(cc1Cl)OCO2 , the value recorded as its remaining activity at 10 µM is 25.9

The recorded remaining activity at 10 µM for C[C@H]1Cn2c(nnc2-c2cncc(F)c2)C(=O)N1Cc1cccc(C(F)(F)F)c1Cl is 20.1

The value of remaining activity at 10 µM measured for the molecule C[C@H]1Cn2c(nnc2-c2cscn2)C(=O)N1Cc1cccc(C(F)(F)F)c1Cl turned out to be 3.8

// remaining activity at 10 µM value for C[C@H]1Cn2c(-c3cnccn3)nnc2-c2nnc(-c3cccc(Cl)c3Cl)n21 : 17.2

Consider CC[C@H]1Cn2c(nnc2-c2ncc(F)cn2)C(=O)N1Cc1cccc(C(F)(F)F)c1Cl . Its measured remaining activity at 10 µM is 22.6

====

Target: P2X7 (Homo sapiens (Human), UniProt Q99572)
Sequence (Q99572 whole entry): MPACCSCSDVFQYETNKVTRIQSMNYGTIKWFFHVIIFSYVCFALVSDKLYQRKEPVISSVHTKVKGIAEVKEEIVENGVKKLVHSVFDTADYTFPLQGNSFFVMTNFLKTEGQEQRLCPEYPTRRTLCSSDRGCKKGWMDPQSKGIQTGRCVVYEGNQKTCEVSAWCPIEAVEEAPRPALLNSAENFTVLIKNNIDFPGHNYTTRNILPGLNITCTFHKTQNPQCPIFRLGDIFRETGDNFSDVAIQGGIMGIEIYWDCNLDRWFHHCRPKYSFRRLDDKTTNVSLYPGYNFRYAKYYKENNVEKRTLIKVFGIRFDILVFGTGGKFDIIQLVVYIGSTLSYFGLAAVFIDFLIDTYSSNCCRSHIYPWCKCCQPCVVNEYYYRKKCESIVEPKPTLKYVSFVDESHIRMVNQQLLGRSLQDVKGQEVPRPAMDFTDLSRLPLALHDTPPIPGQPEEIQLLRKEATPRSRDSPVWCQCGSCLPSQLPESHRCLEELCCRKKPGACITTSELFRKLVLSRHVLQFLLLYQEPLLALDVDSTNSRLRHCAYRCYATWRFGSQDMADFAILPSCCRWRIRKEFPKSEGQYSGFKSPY
Assay: P2X7 antagonism in human peripheral blood mononuclear cells (PBMCs), IL-1β release
Assay type: cell-based
Conditions: P2X7; Table 3 (additional runs); 10 μM compound; read-out: PBMC 10 μM (% control)
Description: P2X7 Antagonism in Human Peripheral Blood Mononuclear Cells (PBMCs) and Human Whole Blood. Human blood was collected using a blood donor program. PBMCs were isolated from blood using a Ficoll density gradient technique. […] Data was expressed as percent control, where control is defined as the difference in IL-1β release in LPS+Bz-ATP samples and LPS only samples. […] Data are analyzed and graphed on Graphpad Prism 5. […]
Measured property: remaining activity at 10 µM (%)
Form entry: value (%) — number only.

Some solved cases for reference:
# Compound, Reported
measured = [
    ("C[C@H]1Cn2c(nnc2-c2cncc(Cl)c2)C(=O)N1Cc1cccc(C(F)(F)F)c1Cl", 13.8),
    ("Cc1c(CN2CCn3c(nnc3-c3ccccn3)C2=O)cccc1C(F)(F)F", 59.3),
    ("C[C@H]1Cn2c(nnc2-c2cnn(C)c2)C(=O)N1Cc1cccc(C(F)(F)F)c1Cl", -0.7),
]

Then there is this compound:
The reported value for CC1Cn2c(nnc2-c2cnccn2)C(=O)N1Cc1cccc(Cl)c1Cl (racemic) in terms of remaining activity at 10 µM is -0.4

====

Biological target: P2X7 (Homo sapiens (Human))
Experiment: P2X7 antagonism in human peripheral blood mononuclear cells (PBMCs), IL-1β release
Assay type: cell-based
Conditions: P2X7; Table 3 (additional runs); 10 μM compound; read-out: PBMC 10 μM (% control)
Examples of compounds with documented remaining activity at 10 µM follow.
Give a bare numeral; the unit % is implied.

# Chemical structure, Measured property, Reported
rows = [
    ("COc1ccnc(-c2nnc3n2C[C@H](C)N(Cc2cccc(C(F)(F)F)c2Cl)C3=O)c1", "remaining activity at 10 µM", -3.1),
    ("COc1ccnc(-c2nnc3n2C[C@H](C)n2c(-c4cccc(C(F)(F)F)c4C)nnc2-3)c1", "remaining activity at 10 µM", 0.7),
    ("C[C@H]1Cn2c(nnc2-c2cccnn2)C(=O)N1Cc1cccc(C(F)(F)F)c1Cl", "remaining activity at 10 µM", 26),
    ("C[C@H]1Cn2c(-c3nccc(C(F)(F)F)n3)nnc2-c2nnc(-c3cccc(C(F)(F)F)c3Cl)n21", "remaining activity at 10 µM", 9.9),
    ("C[C@H]1Cn2c(nnc2C2CC2)C(=O)N1Cc1cccc(C(F)(F)F)c1Cl", "remaining activity at 10 µM", 8.7),
]

With P2X7 (Homo sapiens (Human)) as the test system, C[C@H]1Cn2c(nnc2-c2nccs2)C(=O)N1Cc1cccc(C(F)(F)F)c1Cl showed remaining activity at 10 µM of 3

The measured remaining activity at 10 µM that C[C@H]1Cn2c(nnc2-c2nccc(C(F)(F)F)n2)C(=O)N1Cc1cccc(C(F)(F)F)c1Cl showed for P2X7 (Homo sapiens (Human)) is 4.2

// remaining activity at 10 µM (P2X7 (Homo sapiens (Human))) for Cc1cncc(-c2nnc3n2C[C@H](C)N(Cc2cccc(C(F)(F)F)c2Cl)C3=O)c1 = 0.1

Entry C[C@H]1Cn2c(-c3nccs3)nnc2-c2nnc(-c3cccc(C(F)(F)F)c3Cl)n21 , P2X7 (Homo sapiens (Human)) data, remaining activity at 10 µM value: 1.9

Kindly note: P2X7 (Homo sapiens (Human)), CCc1nnc2n1C[C@H](C)n1c(-c3cccc(C(F)(F)F)c3Cl)nnc1-2 , remaining activity at 10 µM value reported: 6.2

Simply: C[C@H]1Cn2c(nnc2-c2cnccn2)C(=O)N1Cc1ccc(F)cc1Cl , P2X7 (Homo sapiens (Human)), remaining activity at 10 µM = 8.3

Simply: C[C@@H]1Cn2c(nnc2-c2cnccn2)C(=O)N1Cc1cccc(C(F)(F)F)c1Cl , P2X7 (Homo sapiens (Human)), remaining activity at 10 µM = 4.1
